targetOrSystem: Cytochrome P450 2C9 (Homo sapiens)
testDetails: Cytochrome P450 family 2 subfamily C member 9 (CYP2C9) small molecule antagonists: luciferase biochemical (cell-free) qHTS assay (AID 1645842); also: nearly all actives have a fitted effect of over 55% in size
studyConditions: P450-Glo CYP2C9 enzyme assay, luciferin luminescence; series mostly up to 57.4 µM
Inconclusive results are not listed. Active and inactive are the calls of the source. Calls follow the shape of the dose curve; as a rule, active = well fitted inhibition curve with a large enough effect in the repeat runs; inconclusive = weak or mixed curves; inactive = no such curve, though single readings can be large or run the other way.
Labels: active, inactive

molecule	className
CC(=O)Oc1cccc(O)c1	inactive
CC(=O)N[C@H]1[C@H]([C@H](O)[C@H](O)CO)OC(C(=O)O)=C[C@@H]1N=C(N)N	inactive
O=C(O)Cc1cn(-c2ccccc2)nc1-c1ccc(Cl)cc1	active
C=CCNC(N)=S	inactive
O=C(O)Cn1c(C(=O)Nc2nc(-c3ccccc3Cl)cs2)cc2ccccc21	inactive
FC(F)(F)C(Cl)Br (configuration not stated)	inactive
O=C(O)[C@@H]1[C@H]2C[C@H]3c4[nH]c5ccccc5c4CCN3C[C@@H]2CC[C@@H]1O	inactive
CC1(C)[C@@H](OC(=O)CCC(=O)O)CC[C@]2(C)[C@H]3C(=O)C=C4[C@@H]5C[C@@](C)(C(=O)O)CC[C@]5(C)CC[C@@]4(C)[C@]3(C)CC[C@@H]12	inactive
COc1ccccc1OC(=O)Oc1ccccc1OC	inactive
CC(N)CCCC(C)(C)O (configuration not stated)	inactive
CC(=O)N1C[C@H](O)C[C@H]1C(=O)O	inactive
CN/C(=C\[N+](=O)[O-])NCCSCc1csc(CN(C)C)n1	inactive

---

targetOrSystem: Cytochrome P450 2C9 (Homo sapiens)
testDetails: Cytochrome P450 family 2 subfamily C member 9 (CYP2C9) small molecule antagonists: luciferase biochemical (cell-free) qHTS assay (AID 1645842); also: nearly all actives have a fitted effect of over 55% in size
studyConditions: P450-Glo CYP2C9 enzyme assay, luciferin luminescence; series mostly up to 57.4 µM
Inconclusive results are not listed. Calls of active or inactive are those of the source. Calls follow the shape of the dose curve; as a rule, active = well fitted inhibition curve with a large enough effect in the repeat runs; inconclusive = weak or mixed curves; inactive = no such curve, though single readings can be large or run the other way.
Labels: active, inactive

compound	className
Cc1ccc(S(=O)(=O)NC(=O)NC2CCCCCCC2)cc1	active
O=C(NCCCN1CCOCC1)c1ccc(Cl)cc1	inactive
NCC1CCC(C(=O)Oc2ccc(CCC(=O)O)cc2)CC1 (configuration not stated)	inactive
CCCCCCCCCCC(CO)CCCCCCCC (configuration not stated)	inactive
Nc1ncnc(Nc2ccccc2)n1	inactive
CN1CCCN=C1COC(=O)C(O)(c1ccccc1)C1CCCCC1 (configuration not stated)	inactive
CC(=O)Oc1cccc(C)c1	inactive
CCOC(=O)[C@H](CCc1ccccc1)N[C@@H](C)C(=O)N1CCC[C@H]1C(=O)O	inactive
CCCCCCCCCCCCCCCCC(C(=O)O)C(O)(CC(=O)O)C(=O)O (configuration not stated)	inactive
Cc1cc(-n2nc3ccc(Cl)cc3n2)c(O)c(C(C)(C)C)c1	inactive
CC(C)CCCC(C)CCCC(C)CCCCC(C)CCCC(C)CCCC(C)C (configuration not stated)	inactive
O=C1c2ccccc2C(=O)C1c1ccc(Br)cc1	active

---

Tested on: 7G8
testDetails: qHTS profiling for inhibitors of Plasmodium falciparum proliferation (AID 504749); also: nearly all actives have a fitted effect of over 60% in size
studyConditions: P. falciparum in erythrocytes, SYBR Green DNA, 72 h; series mostly up to 28.7 µM
Experimental: NIH National Institute of Allergy and Infectious Diseases [NIAID] NIH Chemical Genomics Center [NCGC] […] Because mature erythrocytes lack DNA, only Plasmodium-derived DNA is detected. NCGC Assay Protocol Summary: The SYBR Green viability assay was adapted from a method described previously (Plouffe et al., 2008). […] The following morning, fluorescence intensity at 485(14) nm excitation and 535(25) nm emission wavelengths was measured on an EnVision (Perkin Elmer) plate reader. […]
Records with an inconclusive call do not appear. Activity calls are given as the source filed them. Calls follow the shape of the dose curve; as a rule, active = well fitted inhibition curve with a large enough effect; inconclusive = small, poorly fitted or top-dose-only effect; inactive = flat fitted curve, though single readings scatter. Where a SMILES comes first, the peptide text is derived from it. Bridges are numbered along the chain shown (N, C = ends). [ ]: non-standard residue; d: D form. hArg = N=C(N)NCCCC[C@H](N)C(=O)O; Mpa = O=C(O)CCS
Labels: Yes = active, No = inactive

compound	targetOrSystem	className
OCc1ccc(Cl)cc1Cl	7G8	No
CC(C(=O)O)c1ccc2c(c1)Cc1cccnc1O2 (centres undefined)	7G8	No
CC(C)(C)C(=O)OCOC(=O)[C@@H]1N2C(=O)[C@@H](NC(=O)[C@H](N)c3ccccc3)[C@H]2SC1(C)C	7G8	No
Cc1c(C(=O)NCCO)[n+](=O)c2ccccc2n1[O-]	7G8	No
CCOC(=O)c1cccnc1	7G8	No
O=C(O)c1cc(=O)c2ccccc2o1	7G8	No
CC(CSC(=O)c1ccccc1)C(=O)N1C[C@@H](Sc2ccccc2)C[C@H]1C(=O)O (some centres undefined)	7G8	No
Cc1c(I)c(=O)n(-c2ccccc2)n1C	7G8	No
O=C(Cn1ccnc1[N+](=O)[O-])NCCO	7G8	No
NNc1nnc(NN)c2ccccc12	7G8	No
NC(=O)[C@@H]1CSSCCC(=O)N[C@@H](CCCCN=C(N)N)C(=O)NCC(=O)N[C@@H](CC(=O)O)C(=O)N[C@@H](Cc2c[nH]c3ccccc23)C(=O)N2CCC[C@H]2C(=O)N1 ([Mpa][hArg]GDWPC-NH2; disulfide 1-7)	7G8	No
C[C@@H]1CCC[C@H](C)N1	7G8	No
O=c1[nH]c2cc(C(F)(F)F)c(N3CCOCC3)cc2n(CP(=O)(O)O)c1=O	7G8	No
NC(N)=NCCN1CCCCCCC1	7G8	No
NC(=O)CC[C@@H](N)C(=O)O	7G8	No
CC(=O)Nc1ccc(C(=O)O)cc1	7G8	No
N[C@@H](Cc1ccc(O)cc1)C(=O)O	7G8	No
O=C(CN1CCNCC1)NC1CCCCC1	7G8	No
Cc1cccc(C)c1NC(=O)CC12CCCN1CCC2	7G8	No
CC(=O)OCC(COC(C)=O)OC(C)=O	7G8	No
NCC1CCC(C(=O)Oc2ccc(CCC(=O)O)cc2)CC1 (centres undefined)	7G8	No
CC(=O)NS(=O)(=O)c1ccc(N)cc1	7G8	No
NS(=O)(=O)c1ccc(C(=O)O)cc1	7G8	No
CN1C(C)(C)CCCC1(C)C	7G8	No
O=C1c2ccccc2C(=O)C1c1ccc(Br)cc1	7G8	Yes
CCN(CC)CCc1nc(-c2ccccc2)no1	7G8	No
CCCCCCCCCCCCCCCCN	7G8	No
CC(=O)Nc1ccccc1	7G8	No
COc1ccc2cc(CCC(C)=O)ccc2c1	7G8	No
O=C(/C=C/c1ccccc1)OCc1ccccc1	7G8	No
COc1cc(O)cc(O)c1	7G8	No
C[N+](C)(C)CC[N+]1(C)Cc2c(Cl)c(Cl)c(Cl)c(Cl)c2C1	7G8	No
C[C@H]1COc2c(C3(N)CC3)c(F)cc3c(=O)c(C(=O)O)cn1c23	7G8	No
O=C(O)c1ccc[n+]([O-])c1	7G8	No
CC(=O)N(CC(O)CO)c1c(I)c(C(=O)NCC(O)CO)c(I)c(C(=O)NCC(O)CO)c1I (centres undefined)	7G8	Yes
CC(C)=CCC/C(C)=C/CO	7G8	No
CC(=O)NCc1c(I)c(NC(C)=O)c(I)c(C(=O)O)c1I	7G8	No
CCCCCCCC(=O)OCC(COC(=O)CCCCCCC)OC(=O)CCCCCCC	7G8	No
COC(=O)c1ccccc1C(=O)c1ccc(OCCN2CCCCC2)cc1	7G8	No

Cited source: PubChem BioAssay (NCATS)
